biological target: ROCKII (1-543) (Homo sapiens (Human), UniProt O75116); assay: Luciferin-Luciferase Assay (Assay 1); assay type: biochemical; details: luciferin-luciferase residual ATP; 750 nM ATP, 7.5 nM kinase
Sequence (O75116 1-543): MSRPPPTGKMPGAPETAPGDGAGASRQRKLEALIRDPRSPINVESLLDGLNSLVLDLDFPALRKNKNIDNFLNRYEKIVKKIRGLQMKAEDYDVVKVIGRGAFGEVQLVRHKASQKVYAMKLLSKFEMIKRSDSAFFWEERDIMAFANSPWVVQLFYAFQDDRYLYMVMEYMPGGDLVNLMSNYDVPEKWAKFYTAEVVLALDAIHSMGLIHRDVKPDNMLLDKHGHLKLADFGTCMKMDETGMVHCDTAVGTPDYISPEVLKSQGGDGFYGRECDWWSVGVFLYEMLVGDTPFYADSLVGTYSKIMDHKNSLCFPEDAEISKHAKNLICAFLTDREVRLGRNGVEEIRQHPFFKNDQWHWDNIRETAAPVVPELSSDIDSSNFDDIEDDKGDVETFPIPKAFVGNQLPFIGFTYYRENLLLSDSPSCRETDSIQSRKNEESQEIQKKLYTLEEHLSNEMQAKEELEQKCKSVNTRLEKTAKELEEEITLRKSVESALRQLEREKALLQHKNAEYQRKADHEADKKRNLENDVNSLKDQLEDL
pIC50: −log10 of the molar value.
The label depends only on pIC50: met if it is at least 8, not met if it is smaller.

molecule	class
Cc1nccn1-c1ccc(C(=O)NCc2cccc(C(=O)Nc3ccc4c(c3)CN(C)CC4)c2)cc1	met
Cc1nc(-c2ccncc2)sc1C(=O)NCc1cccc(C(=O)Nc2ccc3c(c2)CN(C)CC3)c1	met
CN1CCc2nc(NC(=O)c3cccc(CNC(=O)c4csc(-c5cccnc5)n4)c3)sc2C1	met
CCn1c(C(=O)NCc2cccc(C(=O)Nc3ccc4c(c3)CN(C)CC4)c2)cc2cc(C#N)ccc21	not met
CN1CCc2ccc(NC(=O)c3cccc(CNC(=O)c4ccc(-c5cccnc5)s4)c3)cc2C1	not met
CN1CCc2ccc(NC(=O)c3cccc(CNC(=O)c4cc5ccc(C#N)cc5[nH]4)c3)cc2C1	met
CN1CCc2ccc(NC(=O)c3cccc(CNC(=O)c4cc5ccc(C#N)cc5n4C)c3)cc2C1	met
CN1CCc2ccc(NC(=O)c3cccc(CNC(=O)c4ccc5c(c4)OCC(=O)N5)c3)cc2C1	not met
CN1CCc2ccc(NC(=O)c3cccc(CNC(=O)c4ccc5cc(O)ccc5c4)c3)cc2C1	met
CN1CCc2ccc(NC(=O)c3cccc(CNC(=O)c4cccc(-c5cn[nH]c5)c4)c3)cc2C1	met
CN1CCc2ccc(NC(=O)c3cccc(CNC(=O)c4cccc(-c5ccncc5)c4)c3)cc2C1	not met
CN1CCc2ccc(NC(=O)c3cccc(CNC(=O)c4ccc5c(c4)CCC(=O)N5)c3)cc2C1	not met
CN1CCc2ccc(NC(=O)c3cccc(CNC(=O)c4ccc(-n5ccnc5)cc4)c3)cc2C1	met
CN1CCc2ccc(NC(=O)c3cccc(CNC(=O)c4ccc(C5=CSNN5)cc4)c3)cc2C1	met
CN1CCc2ccc(NC(=O)c3cccc(CNC(=O)c4cn5cc(C#N)ccc5n4)c3)cc2C1	not met
Cc1nnnn1-c1ccc(C(=O)NCc2cccc(C(=O)Nc3nc4c(s3)C[C@@H](N)CC4)c2)cc1	met
CN1CCc2nc(NC(=O)c3cccc(CNC(=O)c4csc(-c5ccncc5)n4)c3)sc2C1	met
CN1CCc2ccc(NC(=O)c3cccc(CNC(=O)c4ccc5[nH]c(=O)ccc5c4)c3)cc2C1	not met
CN1CCc2ccc(NC(=O)c3cccc(CNC(=O)c4ccc(-c5ccc(N)nc5)s4)c3)cc2C1	not met
CN1CCc2ccc(NC(=O)c3cccc(CNC(=O)c4ccc(-c5cnco5)cc4)c3)cc2C1	met
CN1CCc2ccc(NC(=O)c3cccc(CNC(=O)c4cccc(-c5cccnc5)c4)c3)cc2C1	not met
CN1CCc2ccc(NC(=O)c3cccc(CNC(=O)c4ccc(-n5cncn5)cc4)c3)cc2C1	met
CN1CCc2nc(NC(=O)c3cccc(CNC(=O)c4cccc(-c5cn[nH]c5)c4)c3)sc2C1	met
N[C@@H]1CCc2nc(NC(=O)c3cccc(CNC(=O)c4cccc(-c5cccnc5)c4)c3)sc2C1	met
